Published IC50 for Cyclin-dependent kinase 1 (Homo sapiens, UniProt P06493), assembled from different documents, is shown next.
# label 1 = IC50 below 100 nM (exclusive); label 0 = IC50 at/above 100 nM

[[record]]
molecule = "CNCc1cc2cnc(Nc3cc(C(=O)N4CCN(C)CC4)n(C)c3)nc2n1C1CCCC1"
study_system = "Cyclin-dependent kinase 1 (Homo sapiens, UniProt P06493)"
assigned_category = "label 0"

[[record]]
molecule = "CC(C)(C)c1ccc2c(c1)NC(=O)/C2=N\\Nc1ccc(S(N)(=O)=O)cc1"
study_system = "Cyclin-dependent kinase 1 (Homo sapiens, UniProt P06493)"
assigned_category = "label 0"

[[record]]
molecule = "COc1ccc(NC(=S)N2CCN(c3nnc(Cc4ccccc4)c4ccccc34)CC2)cc1"
study_system = "Cyclin-dependent kinase 1 (Homo sapiens, UniProt P06493)"
assigned_category = "label 0"

[[record]]
molecule = "O=C(c1ccc(Cl)cc1)N1CCN(c2nnc(Cc3ccccc3)c3ccccc23)CC1"
study_system = "Cyclin-dependent kinase 1 (Homo sapiens, UniProt P06493)"
assigned_category = "label 0"

[[record]]
molecule = "COCc1cccc2[nH]c(-c3nn(C)c4ncc(-c5cncc6ccccc56)cc34)nc12"
study_system = "Cyclin-dependent kinase 1 (Homo sapiens, UniProt P06493)"
assigned_category = "label 0"

[[record]]
molecule = "COc1cc(C(=O)Nc2ccc(NC(=O)c3ccccc3)cc2)ccc1OCC(=O)O"
study_system = "Cyclin-dependent kinase 1 (Homo sapiens, UniProt P06493)"
assigned_category = "label 0"

[[record]]
molecule = "Nc1nc(NC2CCCC2)cc(-c2cc(N3C[C@H](O)[C@@H](O)C3)ccc2O)n1"
study_system = "Cyclin-dependent kinase 1 (Homo sapiens, UniProt P06493)"
assigned_category = "label 1"

[[record]]
molecule = "Cc1ccccc1Sc1nc(Nc2ccc3[nH]cnc3c2)ncc1C(F)(F)F"
study_system = "Cyclin-dependent kinase 1 (Homo sapiens, UniProt P06493)"
assigned_category = "label 0"

[[record]]
molecule = "COc1ccc(C(=O)NC[C@@H](O)CO)cc1/C=C/c1ccc(Cl)cc1"
study_system = "Cyclin-dependent kinase 1 (Homo sapiens, UniProt P06493)"
assigned_category = "label 0"

[[record]]
molecule = "Cc1cc(N2CCCS2(=O)=O)c2oc(-c3ccc(O)c(Br)c3)c(O)c(=O)c2c1"
study_system = "Cyclin-dependent kinase 1 (Homo sapiens, UniProt P06493)"
assigned_category = "label 1"

[[record]]
molecule = "FC(F)(F)c1ccc(Nc2ncc(C(F)(F)F)c(Nc3ccc4nc[nH]c4c3)n2)cc1"
study_system = "Cyclin-dependent kinase 1 (Homo sapiens, UniProt P06493)"
assigned_category = "label 1"

[[record]]
molecule = "CC(C)CCn1cc(-c2cc3cnc(Nc4cc(C(=O)N5CCN(C)CC5)n(C)c4)nc3n2C2CCCC2)cn1"
study_system = "Cyclin-dependent kinase 1 (Homo sapiens, UniProt P06493)"
assigned_category = "label 0"

[[record]]
molecule = "NS(=O)(=O)c1ccc(Nc2cc(-c3cccc(NS(=O)(=O)c4ccccc4)c3)n[nH]2)cc1"
study_system = "Cyclin-dependent kinase 1 (Homo sapiens, UniProt P06493)"
assigned_category = "label 0"

[[record]]
molecule = "CN(C)S(=O)(=O)c1ccc(Nc2cc(N[C@H]3CC[C@H](N)CC3)nc3ncnn23)cc1"
study_system = "Cyclin-dependent kinase 1 (Homo sapiens, UniProt P06493)"
assigned_category = "label 0"

[[record]]
molecule = "Nc1nc(NCCN2CCOCC2)cc(-c2cc(N3C[C@H](O)[C@@H](O)C3)ccc2O)n1"
study_system = "Cyclin-dependent kinase 1 (Homo sapiens, UniProt P06493)"
assigned_category = "label 0"

[[record]]
molecule = "Brc1cnc(Nc2ccc3[nH]ccc3c2)nc1Nc1ccc2[nH]ccc2c1"
study_system = "Cyclin-dependent kinase 1 (Homo sapiens, UniProt P06493)"
assigned_category = "label 0"

[[record]]
molecule = "CC(C)Oc1nc(Nc2ccc3nc[nH]c3c2)ncc1C(F)(F)F"
study_system = "Cyclin-dependent kinase 1 (Homo sapiens, UniProt P06493)"
assigned_category = "label 1"

[[record]]
molecule = "Cc1cccc2c1NC(=O)/C2=C\\Nc1ccc(S(N)(=O)=O)cc1"
study_system = "Cyclin-dependent kinase 1 (Homo sapiens, UniProt P06493)"
assigned_category = "label 0"

[[record]]
molecule = "O=C1Nc2ccc3ncsc3c2/C1=C/Nc1ccc(S(=O)(=O)NCCOCCO)cc1"
study_system = "Cyclin-dependent kinase 1 (Homo sapiens, UniProt P06493)"
assigned_category = "label 1"

[[record]]
molecule = "CCCN(C)[C@H]1CCN(C(=O)c2ccc(Nc3nccc(-c4cnc(C)n4C(C)C)n3)cc2)C1"
study_system = "Cyclin-dependent kinase 1 (Homo sapiens, UniProt P06493)"
assigned_category = "label 0"

[[record]]
molecule = "Clc1cccc(Nc2[nH]cnc3nnc(NCc4ccccc4)c2-3)c1"
study_system = "Cyclin-dependent kinase 1 (Homo sapiens, UniProt P06493)"
assigned_category = "label 0"

[[record]]
molecule = "Cn1cc(Nc2ncc3cnn([C@@H]4C[C@H]5C[C@H]5C4)c3n2)cc1C(=O)N1CCC[C@@H]1CN1CCOCC1"
study_system = "Cyclin-dependent kinase 1 (Homo sapiens, UniProt P06493)"
assigned_category = "label 0"

[[record]]
molecule = "CN1CCN(CCc2ccc(Nc3ncc(C#N)c(-c4ccc(C(C)(C)N)cc4)n3)cc2)CC1"
study_system = "Cyclin-dependent kinase 1 (Homo sapiens, UniProt P06493)"
assigned_category = "label 0"

[[record]]
molecule = "CN(C)C(=O)[C@@H]1CCCN1C(=O)c1cc(Nc2ncc3cnn([C@@H]4C[C@H]5C[C@H]5C4)c3n2)cn1C"
study_system = "Cyclin-dependent kinase 1 (Homo sapiens, UniProt P06493)"
assigned_category = "label 0"

[[record]]
molecule = "O=C(Cc1ccccc1Cl)Nc1n[nH]c2ccc(N3CCCS3(=O)=O)cc12"
study_system = "Cyclin-dependent kinase 1 (Homo sapiens, UniProt P06493)"
assigned_category = "label 1"

[[record]]
molecule = "CCC(CO)Nc1nc(Nc2cccc(-c3ccccn3)c2)c2ncn(C(C)C)c2n1 (stereo not drawn)"
study_system = "Cyclin-dependent kinase 1 (Homo sapiens, UniProt P06493)"
assigned_category = "label 0"

[[record]]
molecule = "O=Nc1c(-c2c(O)[nH]c3c(Br)cccc23)[nH]c2ccccc12"
study_system = "Cyclin-dependent kinase 1 (Homo sapiens, UniProt P06493)"
assigned_category = "label 0"

[[record]]
molecule = "CC(C)n1cnc2c(Nc3cccc(Cl)c3)nc(NCCN(C)C)nc21"
study_system = "Cyclin-dependent kinase 1 (Homo sapiens, UniProt P06493)"
assigned_category = "label 0"

[[record]]
molecule = "COC(=N)c1nc2ccc3ncnc(Nc4ccc(Cl)cc4Cl)c3c2s1"
study_system = "Cyclin-dependent kinase 1 (Homo sapiens, UniProt P06493)"
assigned_category = "label 1"

[[record]]
molecule = "CNC(=O)c1cc(Oc2ccc(NC(=O)Nc3cc(C(C)(C)C)nn3-c3ccc4ncccc4c3)c(F)c2)ccn1"
study_system = "Cyclin-dependent kinase 1 (Homo sapiens, UniProt P06493)"
assigned_category = "label 0"

[[record]]
molecule = "COc1ccc(Cc2nnc(N3CCN(C(=O)Nc4ccccc4)CC3)c3ccccc23)cc1"
study_system = "Cyclin-dependent kinase 1 (Homo sapiens, UniProt P06493)"
assigned_category = "label 1"

[[record]]
molecule = "CC(C)(N)c1ccc(-c2nc(Nc3ccc(OCCN4CCOCC4)cc3)ncc2C#N)cc1"
study_system = "Cyclin-dependent kinase 1 (Homo sapiens, UniProt P06493)"
assigned_category = "label 0"

[[record]]
molecule = "COc1ccc(CNc2nc(NCC(O)CO)nc3c2ncn3C(C)C)cc1 (stereo not drawn)"
study_system = "Cyclin-dependent kinase 1 (Homo sapiens, UniProt P06493)"
assigned_category = "label 0"

[[record]]
molecule = "N#Cc1cnc(Nc2ccc(CCO)cc2)nc1-c1ccccc1"
study_system = "Cyclin-dependent kinase 1 (Homo sapiens, UniProt P06493)"
assigned_category = "label 0"

[[record]]
molecule = "COc1ccc(Nc2nc(Nc3ccc4[nH]cnc4c3)ncc2C(F)(F)F)cc1"
study_system = "Cyclin-dependent kinase 1 (Homo sapiens, UniProt P06493)"
assigned_category = "label 1"

[[record]]
molecule = "CCN1CCN(Cc2ccc(Nc3cc(-c4cc(F)c5nc(C)n(C(C)C)c5c4)ccn3)nn2)CC1"
study_system = "Cyclin-dependent kinase 1 (Homo sapiens, UniProt P06493)"
assigned_category = "label 0"

